assay: qHTS for Inhibitors of the Functional Ribonucleoprotein Complex (vRNP) of Lassa (LASV) Arenavirus: Viability assay - alamar blue signal for LASV Primary Screen (AID 1347083); details: cell viability, alamar blue fluorescence (LASV minigenome counter-screen); series mostly up to 57.5 µM; also: % is scaled to controls: 0 for no effect and ±100 for the full control effect; nearly all actives have a fitted effect of over 80% in size
Inconclusive results are not listed. The source made the active and inactive calls. Calls follow the shape of the full dose curve; tested in HEK293 reporter line.
endpoint name: activity change, negative = reduced viability

Answered examples (8):
1. Cc1c(C)c2c(c(C)c1OC(=O)CCC(=O)OCCO)CC[C@@](C)(CCC[C@H](C)CCC[C@H](C)CCCC(C)C)O2 :: inactive
2. C[C@@H]1CC[C@@]2(OC1)O[C@H]1C[C@H]3[C@@H]4CC[C@H]5C[C@@H](O)CC[C@]5(C)[C@H]4CC(=O)[C@]3(C)[C@H]1[C@@H]2C :: -7.37% [at 5.82 µM] (inactive)
3. C[C@@H](C1=C(CCN(C)C)Cc2ccccc21)c1ccccn1 :: inactive
4. Cl/C(=C\n1cncn1)c1ccc(Cl)cc1Cl :: inactive
5. O=C(O)CCC(=O)Nc1ccc(S(=O)(=O)Nc2nccs2)cc1 :: inactive
6. CN1C(=O)CN=C(c2ccccc2)c2cc(Cl)ccc21 :: inactive
7. NS(=O)(=O)c1cc2c(cc1Cl)CN(C1CCCCC1)C2=O :: inactive
8. NNc1nnc(NN)c2ccccc12 :: inactive

I need activity change, negative = reduced viability for every entry listed below, if you could help.
1. O=c1cc(CO)occ1O
2. CC(C)(Cc1c[nH]c2ccccc12)NCC(O)COc1ccccc1C#N (stereo unspecified)
3. CC(Cc1ccccc1)NCc1ccccc1Cl (stereo unspecified)

inactive
inactive
inactive

====

experiment: qHTS for Inhibitors of ATXN expression: Validation (AID 588378); settings: cell-based ATXN2 expression reporter assay, luminescence; series mostly up to 57.1 µM; also: nearly all actives have a fitted effect of over 75% in size
Results filed as inconclusive are left out. Activity calls are given as the source filed them. The call rests on the fitted dose curve; in most records, active means well fitted inhibition curve with a large enough effect; inconclusive means small, poorly fitted or top-dose-only effect; inactive means no such curve, though single readings can be large or run the other way.
Choose one outcome from this list and give only that: active, inactive

# example entries with known answers
1) COC(=O)C1=CCCN(C)C1 :: inactive
2) NC(=O)CN1CCCC1=O :: inactive
3) COc1ccc(C(=O)N2CCCC2=O)cc1 :: inactive
4) O=C(O)c1nn(Cc2ccc(Cl)cc2Cl)c2ccccc12 :: inactive
5) CC[C@H]1CN2CCc3cc(OC)c(OC)cc3[C@@H]2C[C@@H]1C[C@H]1NCCc2cc(OC)c(OC)cc21 :: active

Let's switch to this molecule now.
Which outcome was entered for the molecule COC(=O)C1=C(C)NC(C)=C(C(=O)OC)C1c1ccccc1[N+](=O)[O-] in this test?
active

====

biological target: Nucleoprotein (Lymphocytic choriomeningitis virus (strain Armstrong)); assay: qHTS for Inhibitors of the Functional Ribonucleoprotein Complex (vRNP) of Lymphocytic Choriomeningitis Arenaviruses (LCMV): LCMV Primary Screen - GLuc reporter signal (AID 1347086); conditions: LCMV minigenome vRNP cell assay, Gaussia luciferase reporter; series mostly up to 57.5 µM; also: % is scaled to controls: 0 for no effect and ±100 for the full control effect; nearly all actives have a fitted effect of over 70% in size
Results filed as inconclusive are left out. Activity calls are given as the source filed them. The call rests on the fitted dose curve.
Choose one outcome from this list and give only that: y (active), n (inactive)

1) CN(C)CCOc1ccccc1Cc1ccccc1 :: n
2) Cc1ccc(C(=O)Oc2ccc(C(O)CNC(C)(C)C)cc2OC(=O)c2ccc(C)cc2)cc1 (stereo not given) :: n
3) CC(C)C(=O)OCc1cccc(OC(=O)[C@@H]2N3C(=O)[C@@H](NC(=O)Cc4ccccc4)[C@H]3SC2(C)C)c1 :: n
4) CCC1(c2cccc(O)c2)CCCCN(C)C1 (stereo not given) :: n
5) CCC(=O)Nc1ccc(O)cc1 :: n
6) Cc1ncc([N+](=O)[O-])n1C :: n
7) C[C@]12CCC(=O)C=C1CC[C@@H]1[C@@H]2[C@@H](O)C[C@@]2(C)[C@H]1CC[C@]2(O)C(=O)CO :: n
8) CC1(C)CCC(C)(C)c2cc(NC(=O)c3ccc(C(=O)O)cc3)ccc21 :: n

Which outcome was entered for the compound COc1ccc2[nH]c(S(=O)Cc3ncc(C)c(OC)c3C)nc2n1 (stereo not given) in this test?
n

Which outcome was entered for the compound COc1cc(C(=S)N2CCOCC2)ccc1O in this test?
n

Which outcome was entered for the compound O=c1[nH]c2cc(Cl)ccc2n1C1CCNCC1 in this test?
n

Which outcome was entered for the compound CCC(C(=O)OCCOCCN(CC)CC)c1ccccc1 (stereo not given) in this test?
n

Which outcome was entered for the compound COc1ccc(CN(CCN(C)C)c2ncccn2)cc1 in this test?
n

Which outcome was entered for the compound CCCCCOc1ccc(C2SC(=O)NC2=O)cc1OCC (stereo not given) in this test?
n

Which outcome was entered for the compound Nc1ccncc1N in this test?
n

Which outcome was entered for the compound O=C1OC2(c3ccccc31)c1cc(I)c(O)c(I)c1Oc1c2cc(I)c(O)c1I in this test?
n

Which outcome was entered for the compound CCCCC1(COC(=O)CCC(=O)O)C(=O)N(c2ccccc2)N(c2ccccc2)C1=O in this test?
n

====

test system: CP215; assay: qHTS profiling for inhibitors of Plasmodium falciparum proliferation (AID 504749); also: nearly all actives have a fitted effect of over 60% in size; also: potency is read from the fitted curve at half-maximal effect; details: P. falciparum in erythrocytes, SYBR Green DNA, 72 h; series mostly up to 28.7 µM
Records with an inconclusive call do not appear. Calls of active or inactive are those of the source. Calls come from the whole dose curve; as a rule, active = well fitted inhibition curve with a large enough effect; inconclusive = small, poorly fitted or top-dose-only effect; inactive = flat fitted curve, though single readings scatter.
endpoint name: Potency

Answered examples (8):
1) CNC(=O)Oc1cccc2ccccc12 :: inactive
2) CCNc1nc(Cl)nc(NCC)n1 :: inactive
3) OC(c1ccccc1)(c1ccccc1)C1CCNCC1 :: inactive
4) CCN(CC)C(C)C(=O)c1ccccc1 (stereo not drawn) :: inactive
5) CC[C@]1(O)CC[C@H]2[C@@H]3CCC4=CCCC[C@@H]4[C@H]3CC[C@@]21C :: inactive
6) O=c1n(Cl)c(=O)n(Cl)c(=O)n1Cl :: inactive
7) Clc1ccc(CO/N=C(\Cn2ccnc2)c2ccc(Cl)cc2Cl)c(Cl)c1 :: 6.75 µM (active)
8) COCC(=O)N(c1c(C)cccc1C)C(C)C(=O)OC (stereo not drawn) :: inactive

I need Potency for every entry listed below, if you could help.
1. O=C(NC(=O)c1c(F)cccc1F)Nc1cc(Cl)c(OC(F)(F)C(F)C(F)(F)F)cc1Cl (stereo not drawn)
2. COC(=O)C1=CCCN(C)C1
3. CCCCCCCCC(=O)NCc1ccc(O)c(OC)c1

1. inactive
2. inactive
3. inactive

I need Potency for every entry listed below, if you could help.
1. Oc1c(Br)cc(Br)cc1Br
2. C[C@]12CC[C@H]3[C@@H](CC=C4C[C@@H](O)CC[C@@]43C)[C@@H]1CC[C@@H]2O

1: inactive; 2: inactive

====

assay: qHTS of pediatric cancer cell lines to identify multiple opportunities for drug repurposing: Primary screen for Rh18 cells (AID 1347102); settings: Rh18 rhabdomyosarcoma viability, CellTiter-Glo luminescence, 48 h; series mostly up to 46 µM; also: % is scaled to controls: 0 for no effect and ±100 for the full control effect; nearly all actives have a fitted effect of over 65% in size
Results filed as inconclusive are left out. Active and inactive are the calls of the source. The call rests on the fitted dose curve; in most records, active means well fitted cell-killing curve with a large enough effect; inconclusive means small, poorly fitted or top-dose-only effect; inactive means flat fitted curve, though single readings scatter.
Choose one outcome from this list and give only that: T for active, F for inactive

# example entries with known answers
1. C[N+]1(CCC(C(N)=O)(c2ccccc2)c2ccccc2)CCCCC1 :: F
2. CNC(=O)NC(O)C(Cl)(Cl)Cl (centres undefined) :: F
3. CC1=C2[C@H]3OC(=O)[C@@H](C)[C@@H]3CC[C@@]2(C)C=CC1=O :: F
4. COC(=O)C1=CCCN(C)C1 :: F
5. CC(C)C(Br)C(=O)NC(N)=O (centres undefined) :: F
6. C[C@H]1CNCCc2ccc(Cl)cc21 :: F

Which outcome was entered for the molecule CCNc1nc(Cl)nc(NCC)n1 in this test?
F

Which outcome was entered for the molecule CN1CCC(N(Cc2ccccc2)c2ccccc2)CC1 in this test?
F

Which outcome was entered for the molecule CC[C@H](O)C(C[C@H](C)N(C)C)(c1ccccc1)c1ccccc1 in this test?
F

Which outcome was entered for the molecule CNC(C)Cc1ccc2c(c1)OCO2 (centres undefined) in this test?
F

Which outcome was entered for the molecule CC(Cc1ccccc1)NCc1ccccc1Cl (centres undefined) in this test?
F

Which outcome was entered for the molecule CC(C)=CCN1CC[C@@]2(C)c3cc(O)ccc3C[C@@H]1[C@@H]2C in this test?
F

====

test system: NIH3T3; assay: Cytotoxic Profiling of Annotated Libraries Using Quantitative High-Throughput Screening (AID 1296008); conditions: Five cell lines viability, CellTiter-Glo ATP luminescence, 48-72 h; also: nearly all actives have a fitted effect of over 60% in size
Records with an inconclusive call do not appear. Active and inactive are the calls of the source. The call rests on the fitted dose curve; in most records, active means well fitted inhibition curve with a large enough effect; inconclusive means small, poorly fitted or top-dose-only effect; inactive means flat fitted curve, though single readings scatter.
Choose one outcome from this list and give only that: active, inactive

1) CCN1CCCC1CNC(=O)C(O)(c1ccccc1)c1ccccc1 (stereo not given) :: inactive
2) O=C(O)Cc1ccccc1 :: inactive
3) O=c1[nH]c2cc(Cl)ccc2n1C1CCNCC1 :: inactive

Which outcome was entered for the compound COC(=O)C1=CCCN(C)C1 in this test?
inactive

Which outcome was entered for the compound CCC1(CC)C(=O)NC(=O)NC1=O in this test?
inactive

Which outcome was entered for the compound CCOC(=O)C(c1c(O)c2ccccc2oc1=O)c1c(O)c2ccccc2oc1=O in this test?
inactive

Which outcome was entered for the compound O=C(N[C@@H]1N=C(c2ccccc2F)c2cccc3c2N(CC3)C1=O)c1cc2ccccc2[nH]1 in this test?
active

Which outcome was entered for the compound CN(C)CCc1c[nH]c2ccc(O)cc12 in this test?
inactive

Which outcome was entered for the compound Cc1ccc([N+](=O)[O-])[c]2c1[O][Hg]2 in this test?
active

Which outcome was entered for the compound CCC1(c2cnc[nH]2)Cc2ccccc2C1 in this test?
inactive

Which outcome was entered for the compound CC(CC(C(N)=O)(c1ccccc1)c1ccccc1)N(C)C (stereo not given) in this test?
inactive

Which outcome was entered for the compound C1CN2CCC1CC2 in this test?
inactive

Which outcome was entered for the compound CC1Sc2c(C(=O)O)c(=O)c3cc(F)c(N4CCNCC4)cc3n21 (stereo not given) in this test?
inactive

Which outcome was entered for the compound C[N+]1(CCC(C(N)=O)(c2ccccc2)c2ccccc2)CCCCC1 in this test?
inactive

Which outcome was entered for the compound CC(C)[N+](C)(CCC(C(N)=O)(c1ccccc1)c1ccccc1)C(C)C in this test?
inactive

Which outcome was entered for the compound COCC(=O)N(c1c(C)cccc1C)C(C)C(=O)OC (stereo not given) in this test?
inactive

Which outcome was entered for the compound CC(C)(C)OC(=O)c1ncn2c1[C@@H]1CCCN1C(=O)c1c(Br)cccc1-2 in this test?
inactive

Which outcome was entered for the compound COP(=O)(OC)OC=C(Cl)Cl in this test?
inactive

Which outcome was entered for the compound CN(C)C(=S)SSC(=S)N(C)C in this test?
active

Which outcome was entered for the compound OC(O)C(Cl)(Cl)Cl in this test?
inactive
